- Test system: OVCAR-8 ovarian
- ASSAY OVERVIEW: NCI tumour cell line growth inhibition, 48 h
VALUE KIND: GI50

COc1ccc2c(c1)/C(=C\c1c(Cl)[nH]c3ccc(OC)cc13)C(=O)N2
34.1 µM
COc1ccc2cc(-c3c(-c4ccncc4)nc(-c4ccc(S(C)(=O)=O)cc4C)n3C)ccc2c1
9.01 µM
COc1cc(/C=C2\C(=O)Nc3ccc(N(C)C)cc32)cc(OC)c1OC
4.46 µM
COc1cc(S(=O)(=O)Nc2ccc(C(=O)/C=C/c3ccc(O)cc3)cc2)ccc1F
> 100 µM
Cc1[nH]nc(C(=O)n2nc(N)c3ccccc32)c1[N+](=O)[O-]
> 100 µM

---

- System: HCC-2998 colon
- ASSAY OVERVIEW: NCI tumour cell line growth inhibition, 48 h
Measured TGI by item
VALUE KIND: TGI

N.N.N.N.O=C([O-])C(Cl)Cl.O=C([O-])C(Cl)Cl.[Co+3].[O-][Cl+3]([O-])([O-])[O-]
> 100 µM
Cc1cc(S(=O)(=O)Nc2n[nH]c(-c3ccccn3)n2)c(S)cc1Cl
30.2 µM
CC(=O)OCC1OC(n2c(-c3ccccc3)c(N=Nc3ccccc3)c(C)c(C#N)c2=S)C(OC(C)=O)C(OC(C)=O)C1OC(C)=O (stereo not given)
> 100 µM
C[C@]12CCCC(=O)C1(O)C[C@H](C(=O)O)CC2 (stereo not given in full)
> 100 µM
CC(=O)NC(CCCCNC(=O)NCCCl)C(=O)NCc1ccccc1 (stereo not given)
> 100 µM

---

- Tested on: HOP-92 NSCLC
- ASSAY OVERVIEW: NCI tumour cell line growth inhibition, 48 h
VALUE KIND: TGI

C/C=C(/C)C(=O)OC1CC(C)[C@H]2CC(=O)C(C)=C2CC1C(C)(C)OC(C)=O (stereo not given in full)
78 µM
NCCCCNc1ccc2c(=O)[nH][nH]c(=O)c2c1
> 100 µM
Nc1ccccc1C#C/C=C\C#Cc1ccccc1[N+](=O)[O-]
> 100 µM
Cn1c2c(c3ccc(Cl)c(Cl)c31)C(C#N)C1(CCNCC1)NC2=O (stereo not given)
2.37 µM
CC(C)C(=O)C(C)(C)CCc1ccccn1
> 100 µM
O=c1nc2c(c(-c3ccc(Br)cc3)[nH]1)COC/C2=C\c1ccc(Br)cc1
> 50 µM
O=C(CCc1cc(O)cc(O)c1)NCCCNC(=O)CCc1cc(O)cc(O)c1
> 100 µM
CS(=O)(=O)Nc1ccc2c(c1)N(S(C)(=O)=O)CC2CCl (stereo not given)
> 100 µM
CN(C)/N=C(/c1nc2ccc(Cl)cc2[nH]c1=O)C(O)c1ccc(C(O)/C(=N\N(C)C)c2nc3ccc(Cl)cc3[nH]c2=O)cc1 (stereo not given)
> 100 µM
O=[N+]([O-])c1cnn(C2=CNc3ccccc3N=C2)c1
> 100 µM

---

- Test system: M14 melanoma
- ASSAY OVERVIEW: NCI tumour cell line growth inhibition, 48 h; in the data active = GI50 below about 0.43 µM; inactive = the rest
Classes used: 1.0 = active, 0.0 = inactive

COc1ccc2[nH]c(O)c(C(=Nc3ccc(N(C)C(=O)CN4CCN(C)CC4)cc3)c3ccccc3)c2c1
0.0
O=C1NC(=S)S/C1=C(/C=C(\CC(=O)c1ccccc1)c1ccc(Cl)cc1)c1ccccc1
0.0
COc1cc2cc(C(=O)N3C[C@H](CCl)c4c3cc(N)c3ccccc43)[nH]c2c(OC)c1OC
1.0
COc1cc2c(=O)n(CCN)c3c4cc5c(cc4ccc3c2cc1OC)OCO5
1.0
CC[C@H](Nc1nc(C)nc(N)c1C#N)c1nc2cccc(NCc3ccc(C(=O)NO)cc3)c2c(=O)n1-c1ccccc1
0.0
N.N.N.N.O=C([O-])C(Cl)Cl.O=C([O-])C(Cl)Cl.[Co+3].[O-][Cl+3]([O-])([O-])[O-]
0.0
O=C1c2cc(Cl)ccc2-c2c1c1ccc([N+](=O)[O-])cc1c(=O)n2CCCBr
0.0
CNCCn1c(=O)c2cc(OC)c(OC)cc2c2ccc3cc4c(cc3c21)OCO4
1.0
COc1cc(-c2n/c(=C\c3c(O)[nH]c4ccc(Cl)cc34)cc3c2=Nc2ccccc2-3)ccc1F
0.0
COc1ccc(Cn2cc3c(c2)-c2oncc2CC3)cc1
0.0
Cc1nc2sccn2c1-c1csc(Nc2cccc(Cl)c2C)n1
0.0
COc1ccccc1/C=C/C(=O)c1ccccc1
0.0
Cc1sc2nc3c4ccccc4c(NCCCN(C)C)nn3c(=O)c2c1C
0.0
CC[O-].CC[O-].O=S(=O)([O-])c1ccc([O-])c2ncccc12.O=S(=O)([O-])c1ccc([O-])c2ncccc12.[Ti+4]
0.0
Cc1ccc2nc(-c3ccc(N(C)C)c(Br)c3)cn2c1
0.0
CCCOc1ccc2nc(NC(=O)OC)[nH]c2c1
1.0
Nc1ccccc1C#C/C=C\C#Cc1ccccc1[N+](=O)[O-]
0.0
COc1ccc(-c2ccc(-c3ccc(C(=N)N)cn3)o2)cc1
0.0
CCn1c2ccc(O)cc2c2c(C)c3c[n+](C)ccc3c(C)c21
0.0

Data credit: PubChem BioAssay (NCI)
